- ASSAY_OVERVIEW: Lipophilicity, log P of the compound
- Type: physicochemical
- REPORTED_CONDITIONS: octanol/water
Given measured logP, output class 1 if it is greater than or equal to 7 and class 0 if not.

// below: answered molecules
MOLECULE: C=C(c1ccc2ccccc2c1)C1CCC2(CC1)COC(Nc1cc(Cl)cc(Cl)c1)OO2 (centres undefined)
LABEL_CLASS: class 0
--
MOLECULE: C=C(c1cccc2ccccc12)C1CCC2(CC1)COC(Nc1cccc(C(F)(F)F)c1)OO2 (centres undefined)
LABEL_CLASS: class 0
--
MOLECULE: C=C(c1ccc2ccc3ccccc3c2c1)C1CCC2(CC1)COC(Nc1ccccc1-c1ccccc1)OO2 (centres undefined)
LABEL_CLASS: class 1
--
MOLECULE: C=C(c1cccc2ccccc12)C1CCC2(CC1)COC(Nc1ccc(C(F)(F)F)cc1)OO2 (centres undefined)
LABEL_CLASS: class 0
--
MOLECULE: C=C(c1ccc2ccccc2c1)C1CCC2(CC1)COC(Nc1ccc(C)cc1)OO2 (centres undefined)
LABEL_CLASS: class 0
--
MOLECULE: C=C(c1ccc2c(c1)Cc1ccccc1-2)C1CCC2(CC1)COC(Nc1ccc(C(F)(F)F)cc1)OO2 (centres undefined)
LABEL_CLASS: class 1
--
MOLECULE: C=C(c1cccc2ccccc12)C1CCC2(CC1)COC(Nc1ccc(F)cc1)OO2 (centres undefined)
LABEL_CLASS: class 0

Next molecule, please.
q: Please tell me: is the molecule C=C(c1ccc2ccccc2c1)C1CCC2(CC1)COC(Nc1ccccc1-c1ccccc1)OO2 (centres undefined) at or over 7 in terms of logP?
a: class 1
